target-or-system: E. coli DnaE (DNA polymerase III α-subunit from Escherichia coli) (Escherichia coli)
Construct: EcDnaE (E. coli DnaE residues 1-1160); 6xHis (N); made in house; host or cells: E. coli BL21(DE3)
Sequence (P10443 whole entry, the tested form may be a part): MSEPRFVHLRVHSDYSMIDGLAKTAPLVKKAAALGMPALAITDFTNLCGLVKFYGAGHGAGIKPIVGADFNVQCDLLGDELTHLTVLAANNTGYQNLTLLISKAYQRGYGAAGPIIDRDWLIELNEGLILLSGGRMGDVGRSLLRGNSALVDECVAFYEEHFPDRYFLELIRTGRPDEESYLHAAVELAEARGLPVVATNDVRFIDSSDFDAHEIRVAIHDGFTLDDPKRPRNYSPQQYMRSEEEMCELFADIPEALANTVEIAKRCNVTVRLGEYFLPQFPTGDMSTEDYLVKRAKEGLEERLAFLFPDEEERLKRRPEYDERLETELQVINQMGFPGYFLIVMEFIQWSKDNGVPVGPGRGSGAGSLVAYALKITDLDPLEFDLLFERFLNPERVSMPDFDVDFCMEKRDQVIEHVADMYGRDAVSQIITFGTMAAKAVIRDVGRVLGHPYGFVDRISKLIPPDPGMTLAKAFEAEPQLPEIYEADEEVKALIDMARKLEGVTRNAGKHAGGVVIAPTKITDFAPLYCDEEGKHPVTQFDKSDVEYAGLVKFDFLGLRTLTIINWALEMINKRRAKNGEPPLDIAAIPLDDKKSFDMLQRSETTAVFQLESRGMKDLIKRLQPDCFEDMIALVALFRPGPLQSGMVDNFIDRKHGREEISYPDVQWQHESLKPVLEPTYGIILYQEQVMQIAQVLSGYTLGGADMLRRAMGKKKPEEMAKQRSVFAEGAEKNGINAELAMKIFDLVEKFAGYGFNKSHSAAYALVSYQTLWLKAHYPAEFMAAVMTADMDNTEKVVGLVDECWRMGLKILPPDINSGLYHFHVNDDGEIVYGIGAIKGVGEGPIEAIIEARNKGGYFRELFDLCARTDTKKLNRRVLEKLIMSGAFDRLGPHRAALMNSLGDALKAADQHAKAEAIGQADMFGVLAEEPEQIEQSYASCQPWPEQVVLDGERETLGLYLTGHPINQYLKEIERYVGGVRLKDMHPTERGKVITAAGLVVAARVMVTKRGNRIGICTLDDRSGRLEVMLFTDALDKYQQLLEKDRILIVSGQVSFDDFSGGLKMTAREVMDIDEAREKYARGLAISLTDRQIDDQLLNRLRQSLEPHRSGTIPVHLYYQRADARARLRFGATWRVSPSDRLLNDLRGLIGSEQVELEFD
assay-remarks: In vitro DnaE single enzyme assay (E. coli)
Assay type: biochemical
conditions-used: read-out: E. coli DnaE IC50 (converted)
# IC50 per record follows

- compound: "CO[C@H]1CC2C=C[C@H]3[C@H]4O[C@]2(/C(C)=C/[C@@H](C)[C@@H]([C@@H](C)OC(=O)OC2CCC(O)CC2)OC1=O)[C@@H]3[C@H](O)[C@@H](C)[C@H]4OC(=O)c1ccc[nH]1 (single isomer, unassigned) [Example 34]"
  target-or-system: "E. coli DnaE (DNA polymerase III α-subunit from Escherichia coli) (Escherichia coli)"
  IC50: "106 µM"
- compound: "CO[C@H]1C[C@H]2C=C[C@H]3[C@H]4O[C@]2(/C(C)=C/[C@@H](C)[C@@H]([C@@H](C)OC(=O)NCc2ccncc2)OC1=O)[C@@H]3[C@H](O)[C@@H](C)[C@H]4OC(=O)c1ccc[nH]1 [Example 11]"
  target-or-system: "E. coli DnaE (DNA polymerase III α-subunit from Escherichia coli) (Escherichia coli)"
  IC50: "123 µM"
- compound: "CC[C@H]1OC(=O)[C@@H](OC)C[C@H]2C=C[C@H]3[C@H]4O[C@]2(/C(C)=C/[C@H]1C)[C@@H]3[C@H](O)C(C)[C@H]4C#N (stereo partly shown) [Example 189]"
  target-or-system: "E. coli DnaE (DNA polymerase III α-subunit from Escherichia coli) (Escherichia coli)"
  IC50: "> 241 µM"
- compound: "CO[C@H]1CC2C=C[C@H]3[C@H]4O[C@]2(/C(C)=C/[C@@H](C)[C@@H](C(C)=O)OC1=O)[C@@H]3[C@H](O)[C@@H](C)[C@H]4OC(=O)c1ccc[nH]1 (stereo partly shown) [Example 177]"
  target-or-system: "E. coli DnaE (DNA polymerase III α-subunit from Escherichia coli) (Escherichia coli)"
  IC50: "8.76 µM"

====

target-or-system: S. aureus DnaE (DNA polymerase III α-subunit homolog from Staphylococcus aureus) (Staphylococcus aureus, UniProt Q5HF71)
Construct: SaDnaE (S. aureus DnaE residues 1-1065); 6xHis (N); made in house; host or cells: E. coli BL21-AI
Sequence (Q5HF71 whole entry, the tested form may be a part): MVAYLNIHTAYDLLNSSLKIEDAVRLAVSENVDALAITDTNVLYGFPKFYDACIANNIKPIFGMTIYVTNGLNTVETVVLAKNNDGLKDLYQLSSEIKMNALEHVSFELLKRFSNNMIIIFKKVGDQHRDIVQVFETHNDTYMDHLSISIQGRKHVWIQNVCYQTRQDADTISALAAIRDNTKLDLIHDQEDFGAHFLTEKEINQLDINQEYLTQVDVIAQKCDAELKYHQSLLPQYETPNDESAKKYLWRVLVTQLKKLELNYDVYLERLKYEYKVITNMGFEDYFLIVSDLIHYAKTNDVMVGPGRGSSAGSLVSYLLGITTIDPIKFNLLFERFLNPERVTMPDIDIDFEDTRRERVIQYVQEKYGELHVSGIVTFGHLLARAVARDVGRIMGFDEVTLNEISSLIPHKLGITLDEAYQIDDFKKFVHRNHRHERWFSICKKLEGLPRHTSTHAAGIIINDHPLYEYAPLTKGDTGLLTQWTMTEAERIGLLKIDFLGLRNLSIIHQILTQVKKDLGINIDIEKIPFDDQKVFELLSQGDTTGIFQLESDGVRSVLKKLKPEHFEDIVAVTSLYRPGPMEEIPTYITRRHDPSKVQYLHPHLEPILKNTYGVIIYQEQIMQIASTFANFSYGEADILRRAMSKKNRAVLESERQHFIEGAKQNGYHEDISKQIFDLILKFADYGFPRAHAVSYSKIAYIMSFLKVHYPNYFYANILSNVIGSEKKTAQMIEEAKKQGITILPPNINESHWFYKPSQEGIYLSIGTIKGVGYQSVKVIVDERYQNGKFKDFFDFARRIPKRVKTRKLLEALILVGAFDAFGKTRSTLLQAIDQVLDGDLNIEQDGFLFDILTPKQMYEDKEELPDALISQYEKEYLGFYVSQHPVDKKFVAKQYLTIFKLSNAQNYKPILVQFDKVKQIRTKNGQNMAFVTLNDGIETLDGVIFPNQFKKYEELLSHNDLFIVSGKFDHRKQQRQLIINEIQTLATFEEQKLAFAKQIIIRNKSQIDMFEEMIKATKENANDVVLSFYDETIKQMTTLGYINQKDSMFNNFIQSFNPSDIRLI
assay-remarks: biochemical
Format: biochemical
conditions-used: S. aureus DnaE IC50
Protocol: Plasmids encoding EcDnaE (E. coli DnaE residues 1-1160) and SaDnaE (S. aureus DnaE residues 1-1065) with 6×His N-terminal tags, were overexpressed in BL21(DE3) and BL21-AI cells (Invitrogen), respectively. Cells were grown in LB media to an OD ˜0.45 pelleted and then resuspended in Minimal Media, as described in Pryor et al. (1997, Protein Expr Purif. 10:309-19), and inducer (0.4 mM IPTG or 0.2% arabinose) for 21 hours at 18° C. at 220 rpm. […]
Known IC50 of a selection of compounds

- compound: "CO[C@H]1CC2C=C[C@H]3[C@H]4O[C@]2(/C(C)=C/[C@@H](C)[C@@H](C(C)O)OC1=O)[C@@H]3[C@H](O)[C@@H](C)[C@H]4OC(=O)c1[nH]c(-c2ccsc2)c(-c2ccsc2)c1-c1ccsc1 (some centres unmarked)"
  IC50: "394 nM"
- compound: "CO[C@H]1C[C@H]2C=C[C@H]3[C@H]4O[C@]2(/C(C)=C/[C@@H](C)[C@@H]([C@@H](C)OC(=O)NCC(=O)O)OC1=O)[C@@H]3[C@H](O)[C@@H](C)[C@H]4OC(=O)c1ccc[nH]1"
  IC50: "< 9.73 nM"
- compound: "CO[C@H]1C[C@H]2C=C[C@H]3[C@H]4O[C@]2(/C(C)=C/[C@@H](C)[C@@H]([C@@H](C)OC(=O)CCl)OC1=O)[C@@H]3[C@H](O)[C@@H](C)[C@H]4OC(=O)c1ccc[nH]1"
  IC50: "< 10.1 nM"
- compound: "CO[C@H]1C[C@H]2C=C[C@H]3[C@H]4O[C@]2(/C(C)=C/[C@@H](C)[C@@H]([C@@H](C)OC(=O)OC(C)C)OC1=O)[C@@H]3[C@H](O)[C@@H](C)[C@H]4OC(=O)c1ccc[nH]1"
  IC50: "34.9 nM"
- compound: "CO[C@H]1C[C@H]2C=CC3C4[C@H](O)[C@@H](C)[C@@H](OC(=O)c5cc(NC(=O)c6ccccc6)c[nH]5)[C@@H]3O[C@]42/C(C)=C/[C@@H](C)[C@@H]([C@@H](C)O)OC1=O"
  IC50: "3150 nM"
- compound: "CO[C@H]1C[C@H]2C=C[C@H]3[C@H]4O[C@]2(/C(C)=C/[C@@H](C)[C@@H]([C@@H](C)OC(=O)OCC(C)(N)CO)OC1=O)[C@@H]3[C@H](O)[C@@H](C)[C@H]4OC(=O)c1ccc[nH]1.O=C(O)C(F)(F)F (some centres unmarked)"
  IC50: "~6.57 nM"
- compound: "CO[C@H]1C[C@H]2C=C[C@H]3[C@H]4O[C@]2(/C(C)=C/[C@@H](C)[C@@H]([C@@H](C)OC(=O)NC(C)(CO)CO)OC1=O)[C@@H]3[C@H](O)[C@@H](C)[C@H]4OC(=O)c1ccc[nH]1"
  IC50: "< 9.28 nM"
- compound: "CO[C@H]1C[C@H]2C=C[C@H]3[C@H]4O[C@]2(/C(C)=C/[C@@H](C)[C@@H]([C@@H](C)OC(=O)NC(C)C)OC1=O)[C@@H]3[C@H](O)[C@@H](C)[C@H]4OC(=O)c1ccc[nH]1"
  IC50: "33.3 nM"

====

We begin with a simple list: items and their reported IC50.
target-or-system: E. coli DnaE (DNA polymerase III α-subunit from Escherichia coli) (Escherichia coli)
Construct: EcDnaE (E. coli DnaE residues 1-1160); 6xHis (N); made in house; host or cells: E. coli BL21(DE3)
assay-remarks: In vitro DnaE single enzyme assay (E. coli)
Format: biochemical
conditions-used: E. coli DnaE IC50

- molecule: "CCN[C@H]1[C@H](C)[C@@H](O)[C@@H]2[C@H]3C=C[C@@H]4C[C@H](OC)C(=O)O[C@H]([C@@H](C)O)[C@H](C)/C=C(\\C)[C@@]24O[C@H]31"
  inequality-sign: ">"
  IC50, µM: 222
- molecule: "CO[C@H]1C[C@H]2C=C[C@H]3[C@H]4O[C@]2(/C(C)=C/[C@@H](C)[C@@H]([C@@H](C)OC(=O)NC(=O)C(Cl)(Cl)Cl)OC1=O)[C@@H]3[C@H](OC(=O)NC(=O)C(Cl)(Cl)Cl)[C@@H](C)[C@H]4OC(=O)c1ccc[nH]1"
  inequality-sign: "="
  IC50, µM: 67.2
- molecule: "COC1CC2C=CC3C4OC2(C(C)=CC(C)C(C(C)OC(=O)NCCN2CCN(C)CC2)OC1=O)C3C(O)C(C)C4OC(=O)c1ccc[nH]1 (stereo not drawn)"
  inequality-sign: ">"
  IC50, µM: 146
- molecule: "CO[C@H]1C[C@H]2C=C[C@H]3[C@H]4O[C@]2(/C(C)=C/[C@@H](C)[C@@H]([C@@H](C)O)OC1=O)[C@@H]3[C@H](O)[C@@H](C)[C@H]4OCc1ccsc1"
  inequality-sign: "="
  IC50, µM: 75.2
- molecule: "CO[C@H]1C[C@H]2C=C[C@H]3[C@H]4O[C@]2(/C(C)=C/[C@@H](C)[C@@H]([C@H](C)N2C(=O)c5ccccc5C2=O)OC1=O)[C@@H]3[C@H](O)[C@@H](C)[C@H]4OC(=O)c1ccc[nH]1"
  inequality-sign: "="
  IC50, µM: 63.6
- molecule: "CO[C@H]1C[C@H]2C=C[C@H]3[C@H]4O[C@]2(/C(C)=C/[C@@H](C)[C@@H]([C@@H](C)O)OC1=O)[C@@H]3[C@H](O)C(C)[C@@H]4NCCN.O=C(O)C(F)(F)F (stereo partly drawn)"
  inequality-sign: ">"
  IC50, µM: 173
- molecule: "CO[C@H]1C[C@H]2C=C[C@H]3[C@H]4O[C@]2(/C(C)=C/[C@@H](C)[C@@H]([C@@H](C)O)OC1=O)[C@@H]3[C@H](O)[C@@H](C)[C@H]4OC(=O)c1ccsc1"
  inequality-sign: "="
  IC50, µM: 9.76
- molecule: "CO[C@H]1C[C@H]2C=C[C@H]3[C@H]4O[C@]2(/C(C)=C/[C@@H](C)[C@@H]([C@@H](C)OC(=O)CBr)OC1=O)[C@@H]3[C@H](O)[C@@H](C)[C@H]4OC(=O)c1ccc[nH]1"
  inequality-sign: "="
  IC50, µM: 48.7
- molecule: "CO[C@H]1C[C@H]2C=C[C@H]3[C@H]4O[C@]2(/C(C)=C/[C@@H](C)[C@@H]([C@@H](C)O)OC1=O)[C@@H]3[C@H](O)[C@@H](C)[C@@H]4N"
  inequality-sign: ">"
  IC50, µM: 237
- molecule: "C=CC[C@H]1[C@@H]2O[C@@]34/C(C)=C/[C@@H](C)[C@@H]([C@@H](C)O)OC(=O)[C@@H](OC)C[C@H]3C=C[C@@H]2[C@H]4C(=O)[C@@H]1C"
  inequality-sign: ">"
  IC50, µM: 112
- molecule: "CC[C@H]1OC(=O)[C@@H](OC)C[C@H]2C=C[C@H]3[C@H]4O[C@]2(/C(C)=C/[C@H]1C)[C@@H]3[C@H](O)C(C)[C@H]4C[N+](=O)[O-] (stereo partly drawn)"
  inequality-sign: "="
  IC50, µM: 66.7
- molecule: "CO[C@H]1C[C@H]2C=CC3C4[C@H](O)[C@@H](C)[C@@H](OC(=O)c5ccc[nH]5)[C@@H]3O[C@]42/C(C)=C/[C@@H](C)[C@@H]([C@@H](C)OC(=O)C(=O)OCCN(C)C)OC1=O.O=C(O)C(F)(F)F"
  inequality-sign: "="
  IC50, µM: 7.76
- molecule: "CO[C@H]1CC2C=C[C@H]3[C@H]4O[C@]2(/C(C)=C/[C@@H](C)[C@@H]([C@@H](C)OC(=O)NC(CO)(CO)CO)OC1=O)[C@@H]3[C@H](O)[C@@H](C)[C@H]4OC(=O)c1ccc[nH]1 (stereo partly drawn)"
  inequality-sign: ">"
  IC50, µM: 151
- molecule: "CO[C@H]1C[C@H]2C=C[C@H]3[C@H]4O[C@]2(/C(C)=C/[C@@H](C)[C@@H]([C@@H](C)O)OC1=O)[C@@H]3[C@H](O)C(C)[C@@H]4NCc1ccncc1.O=C(O)C(F)(F)F (stereo partly drawn)"
  inequality-sign: ">"
  IC50, µM: 160
- molecule: "CO[C@H]1C[C@H]2[C@@H]3O[C@@H]3[C@H]3[C@H]4O[C@]2(/C(C)=C/[C@@H](C)[C@@H]([C@@H](C)O)OC1=O)[C@@H]3[C@H](O)[C@@H](C)[C@H]4OC(=O)c1ccc[nH]1"
  inequality-sign: ">"
  IC50, µM: 188
